Parameter: IC50. Scope: all listed entries.
- system.tested: T1, cynomolgus monkey GPVI extracellular domain fused at its C-terminus to human IgG1 Fc (GPVI-Fc) (cynomolgus monkey; human)
- T1 construct: also called cyGPVI-2; cyGPVI
- assay: Competition ELISA (MSD): cynomolgus GPVI-Fc preincubated with Fab, then on coated CRP-XL (competitor)
Numbers only; they are read as nM.

Please review the following examples before continuing.
Reference Control Antibody RefFab #1 (humanized GPVI antibody of WO2011073954A2, SANOFI) (Fab, V domains shown, Cloned into mammalian Fab expression vectors; a glycine-serine linker (G4S)2 was added to the C-terminus of the Fab heavy chain) VH: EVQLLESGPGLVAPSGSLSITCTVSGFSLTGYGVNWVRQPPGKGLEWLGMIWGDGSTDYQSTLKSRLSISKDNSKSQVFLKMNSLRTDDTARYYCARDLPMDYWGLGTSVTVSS VL: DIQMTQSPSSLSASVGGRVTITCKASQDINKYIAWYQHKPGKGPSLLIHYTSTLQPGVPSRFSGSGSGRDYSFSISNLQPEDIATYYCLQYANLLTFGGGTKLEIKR    9.5
Fab #4 comprising a modified heavy chain constant region (Fab, V domains shown, Human Fab from the Ylanthia library; produced in HKB11 cells; also called Fab #4 mod; HC) VH: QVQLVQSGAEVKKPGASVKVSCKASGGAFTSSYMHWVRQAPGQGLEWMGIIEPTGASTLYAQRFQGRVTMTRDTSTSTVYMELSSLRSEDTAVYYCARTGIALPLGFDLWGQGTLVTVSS VL: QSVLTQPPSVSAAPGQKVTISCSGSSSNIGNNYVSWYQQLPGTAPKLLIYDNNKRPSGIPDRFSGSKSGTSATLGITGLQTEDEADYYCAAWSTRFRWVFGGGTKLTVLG    11.3

For the binder Fab #1 comprising a modified heavy chain constant region (Fab, V domains shown, Human Fab from the Ylanthia library; produced in HKB11 cells; also called Fab #1 mod; HC) VH: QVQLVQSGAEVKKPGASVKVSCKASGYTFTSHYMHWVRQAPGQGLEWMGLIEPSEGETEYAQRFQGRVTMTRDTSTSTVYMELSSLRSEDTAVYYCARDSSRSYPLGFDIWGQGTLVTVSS VL: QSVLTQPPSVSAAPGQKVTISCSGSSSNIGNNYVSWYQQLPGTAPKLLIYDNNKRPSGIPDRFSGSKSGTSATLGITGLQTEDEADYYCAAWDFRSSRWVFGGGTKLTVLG , report IC50.
11.5

For the binder Fab #2 comprising a modified heavy chain constant region (Fab, V domains shown, Human Fab from the Ylanthia library; produced in HKB11 cells; also called Fab #2 mod; HC) VH: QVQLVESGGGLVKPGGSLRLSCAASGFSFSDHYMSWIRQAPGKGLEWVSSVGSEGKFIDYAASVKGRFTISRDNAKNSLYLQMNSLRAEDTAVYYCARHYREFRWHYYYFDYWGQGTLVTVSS VL: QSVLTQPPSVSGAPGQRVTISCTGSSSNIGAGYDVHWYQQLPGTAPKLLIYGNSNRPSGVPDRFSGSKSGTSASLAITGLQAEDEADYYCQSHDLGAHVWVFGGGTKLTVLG , report IC50.
7.9

For the binder Fab #3 comprising a modified heavy chain constant region (Fab, V domains shown, Human Fab from the Ylanthia library; produced in HKB11 cells; also called Fab #3 mod; HC) VH: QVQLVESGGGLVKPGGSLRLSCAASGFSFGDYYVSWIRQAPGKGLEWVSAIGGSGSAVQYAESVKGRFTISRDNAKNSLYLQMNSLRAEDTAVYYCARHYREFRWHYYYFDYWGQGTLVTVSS VL: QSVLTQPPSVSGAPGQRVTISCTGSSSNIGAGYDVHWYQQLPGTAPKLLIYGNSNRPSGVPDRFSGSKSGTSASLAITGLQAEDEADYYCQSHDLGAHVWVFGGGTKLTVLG , report IC50.
9.1
